Biological target: Alpha-1A adrenergic receptor (Rattus norvegicus)
Sequence (P43140 whole entry): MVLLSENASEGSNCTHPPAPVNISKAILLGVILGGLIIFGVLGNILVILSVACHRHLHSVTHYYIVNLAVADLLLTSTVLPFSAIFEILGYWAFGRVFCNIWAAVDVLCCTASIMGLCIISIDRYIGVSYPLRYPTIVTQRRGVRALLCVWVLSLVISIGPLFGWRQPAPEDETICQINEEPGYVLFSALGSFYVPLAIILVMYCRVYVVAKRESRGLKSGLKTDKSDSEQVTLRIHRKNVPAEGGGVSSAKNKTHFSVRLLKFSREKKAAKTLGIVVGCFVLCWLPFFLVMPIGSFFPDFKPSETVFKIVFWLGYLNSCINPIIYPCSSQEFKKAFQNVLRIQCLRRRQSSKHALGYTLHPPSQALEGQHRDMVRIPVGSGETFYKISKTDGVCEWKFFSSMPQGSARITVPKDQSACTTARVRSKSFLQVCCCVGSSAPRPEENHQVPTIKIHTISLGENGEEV
measured_endpoint: IC50 (nM)
Numbers only, in nM.

Reference set, count: 2
> print(dat)
                                   compound  measured.endpoint  display.unit  measured.value
1               CNCCC=C1c2ccccc2CCc2ccccc21               IC50            nM              40
2  CN(C)CC/C=C1/c2ccccc2COc2ccccc21 [DOXEPIN]               IC50            nM              10

Next item in the queue.
Per the records, this compound ( `CN(C)CCC=C1c2ccccc2CCc2ccccc21` ) has IC50 equal to 20
